- ASSAY INFO: Parallel artificial membrane permeability assay for the blood–brain barrier (PAMPA-BBB)
- APPLIED CONDITIONS: compound within RootExt; PAMPA-BBB

COMPOUND	RootExt Cross BBB Potential
O=c1ccc2cc(O)c(O)cc2o1 [6,7-dihydroxycoumarin]	–
C=C(C)C(O)CCC(C)C1CCC2(C)C3CCC4C(C)(C)C(O)CCC45CC35CCC12C (stereo not shown)	+ (log Pe < −6.5)
CC1=C2C[C@H](C(C)(C)O)CC[C@]2(C)CCC1 [epi-γ-eudesmol]	+ (log Pe < −6.5)
O=c1c(OC2OC(CO)C(O)C(O)C2O)c(-c2ccc(O)c(O)c2)oc2cc(O)cc(O)c12 (stereo not shown)	–
